All values here come from ChEMBL document CHEMBL4368885.

Assay: Cytotoxicity against human HeLa cells assessed as cell viability at 20 uM after 24 hrs by resazurin dye-based fluorescence assay relative to control
Conditions: read-out: Activity
Observation type: viability at 24 h, 20 µM

Structure as smiles: COCCNC(=O)c1cn(Cc2ccccc2)c2ccc(C(C)=O)cc2c1=O
Observation type: viability at 24 h, 20 µM
Reported value: < 75%
//
Structure as smiles: CCn1cc(C(=O)NCCOC)c(=O)c2cc(/C(C)=N/NC(=O)c3ccncc3)ccc21
Observation type: viability at 24 h, 20 µM
Reported value: < 75%
//
Structure as smiles: C/C(=N\NC(=O)c1ccncc1)c1ccc2c(c1)c(=O)c(C(=O)NCCNCCO)cn2Cc1ccccc1
Observation type: viability at 24 h, 20 µM
Reported value: < 75%

====

Test system: Mycobacterium tuberculosis
Test: microbe, parasite or virus in culture
Details: H37Rv
Description: Antitubercular activity against Mycobacterium tuberculosis H37Rv after 7 to 14 days by broth micro dilution method
The entries below come with measured MIC90 values attached.

Structure as smiles: CCn1cc(C(=O)NCCCn2ccnc2)c(=O)c2cc(/C(C)=N/NC(=O)c3ccncc3)ccc21
Target of assay: Mycobacterium tuberculosis
MIC90 (µM): 7.8

Structure as smiles: CCn1cc(C(=O)NCCOC)c(=O)c2cc(/C(C)=N/NC(=O)c3ccncc3)ccc21
Target of assay: Mycobacterium tuberculosis
MIC90 (µM): 0.8

Structure as smiles: CCOC(=O)c1cn(C)c2ccc(/C(C)=N/NC(=O)c3ccncc3)cc2c1=O
Target of assay: Mycobacterium tuberculosis
MIC90 (µM): 0.9

Structure as smiles: C/C(=N\NC(=O)c1ccncc1)c1ccc2c(c1)c(=O)c(C(=O)NCCNCCO)cn2Cc1ccc(Br)cc1
Target of assay: Mycobacterium tuberculosis
MIC90 (µM): 0.8

Structure as smiles: CC(=O)c1ccc2c(c1)c(=O)c(C(=O)NCCNCCO)cn2Cc1ccc(Cl)cc1Cl
Target of assay: Mycobacterium tuberculosis
MIC90 (µM): 125

====

Assay: Half life in rat liver microsomes at 1 uM by LC-MS/MS analysis
Assay type: ADME, Microsome

Structure as smiles: CCn1cc(C(=O)NCCOC)c(=O)c2cc(/C(C)=N/NC(=O)c3ccncc3)ccc21
half-life at 1 µM: > 2.5 h

====

The entries below come with measured MIC90 values attached.
Test system: Mycobacterium tuberculosis
Test: microbe, parasite or virus in culture
Details: H37Rv
Observation type: MIC90 (µM)

Molecule: C/C(=N\NC(=O)c1ccncc1)c1ccc2c(c1)c(=O)c(C(=O)NCCNCCO)cn2Cc1ccc(C(F)(F)F)cc1
Unit of measure: µM
Reported value: 1.8

Molecule: C/C(=N\NC(=O)c1ccncc1)c1ccc2c(c1)c(=O)c(C(=O)NCCNCCO)cn2Cc1ccccc1
Unit of measure: µM
Reported value: 2

Molecule: C/C(=N\NC(=O)c1ccncc1)c1ccc2c(c1)c(=O)c(C(=O)NCCOCCO)cn2Cc1ccc(Br)cc1
Unit of measure: µM
Reported value: 2.7

Molecule: NNC(=O)c1ccncc1 [ISONIAZID]
Unit of measure: µM
Reported value: 0.2

Molecule: COCCNC(=O)c1cn(Cc2ccccc2)c2ccc(C(C)=O)cc2c1=O
Unit of measure: µM
Reported value: 43.4

Molecule: COCCNC(=O)c1cn(Cc2ccc(Cl)cc2Cl)c2ccc(/C(C)=N/NC(=O)c3ccncc3)cc2c1=O
Unit of measure: µM
Reported value: 4.8

Molecule: CCOC(=O)c1cn(CC)c2ccc(/C(C)=N/NC(=O)c3ccncc3)cc2c1=O
Unit of measure: µM
Reported value: 0.2

Molecule: CO[C@H]1/C=C/O[C@@]2(C)Oc3c(C)c(O)c4c(O)c(c(/C=N/N5CCN(C)CC5)c(O)c4c3C2=O)NC(=O)/C(C)=C\C=C\[C@H](C)[C@H](O)[C@@H](C)[C@@H](O)[C@@H](C)[C@H](OC(C)=O)[C@@H]1C [RIFAMPIN]
Unit of measure: µM
Reported value: 0.06

====

Test: Aqueous solubility in pH 6.5 PBS at 10 to 220 uM after 20 hrs by nephelometric analysis
Type: physicochemical

Structure as smiles: CCn1cc(C(=O)NCCOC)c(=O)c2cc(/C(C)=N/NC(=O)c3ccncc3)ccc21
solubility kinetic at 20 h / µM: 95

====

Experiment: Metabolic stability in mouse liver microsomes assessed as percentage of compound remaining at 1 uM by LC-MS/MS analysis
Assay type: ADME, Microsome
Settings: read-out: Stability

Structure as smiles: CCn1cc(C(=O)NCCOC)c(=O)c2cc(/C(C)=N/NC(=O)c3ccncc3)ccc21
remaining at 1 µM, %: 77

====

Test: Metabolic stability in rat liver microsomes assessed as percentage of compound remaining at 1 uM by LC-MS/MS analysis
Assay type: ADME, Microsome
Conditions: read-out: Stability

Structure as smiles: CCn1cc(C(=O)NCCOC)c(=O)c2cc(/C(C)=N/NC(=O)c3ccncc3)ccc21
remaining at 1 µM: 87%

====

Experiment: Half life in mouse liver microsomes at 1 uM by LC-MS/MS analysis
Type: ADME, Microsome

Structure as smiles: CCn1cc(C(=O)NCCOC)c(=O)c2cc(/C(C)=N/NC(=O)c3ccncc3)ccc21
Unit of measure: h
half-life at 1 µM: 1.33

====

Assay: Hepatic extraction ratio in rat liver microsomes at 1 uM by LC-MS/MS analysis
Format: ADME, Microsome
Settings: read-out: ERH

Structure as smiles: CCn1cc(C(=O)NCCOC)c(=O)c2cc(/C(C)=N/NC(=O)c3ccncc3)ccc21
hepatic extraction ratio at 1 µM: < 0.3
